Could you please report measured TGI for the items listed next?
- Test system: RXF-631 renal
- Assay explanation: NCI tumour cell line growth inhibition, 48 h

Challenge: So what does the record say about TGI for COC(=O)[C@]1(C)CCCC2(C)C1CC[C@H]1C=C(C)[C@H]3CCC12C3 (some centres not stated) ?
Response given: > 100 µM

Challenge: What value of measured TGI is listed for COc1ccc(-c2cc(-c3ccccc3)c(C#N)c(=O)n2C2OC(CO)C(O)C(O)C2O)cc1 (configuration not stated) ?
Response given: > 100 µM

Challenge: Return reported TGI; argument: Cc1ccc(S(=O)(=O)N/N=C/c2oc(-c3ccncc3)c(-c3ccncc3)c2[N+](=O)[O-])cc1
Response given: > 100 µM

Challenge: Field request: TGI | item: O=C(NCCCCN=c1cccccc1NCCCCNC(=O)OCc1ccccc1)OCc1ccccc1
Response given: 26.1 µM

Challenge: What value of TGI has been recorded for this entry: COc1cccc2c1C(=O)c1c(O)c3c(c(O)c1C2=O)C[C@@](O)(C(=O)CO)C[C@@H]3OC1CC(N)C(OC)C(C)O1 (some centres not stated)
Response given: 0.747 µM

Challenge: So what does the record say about TGI for O=C(O)[C@H](NS(=O)(=O)c1ccc2ccccc2c1)c1ccccc1 ?
Response given: > 100 µM

Challenge: Which TGI value belongs to O=c1[nH]cc(COCCO)c(=O)[nH]1 ?
Response given: > 100 µM
